System: NCI-H226 lung
Assay: NCI tumour cell line growth inhibition, 48 h
test-readout: TGI (µM)
One number for each entry, in µM.

Worked cases, TGI given:
| compound | target-entity | TGI (µM) |
| --- | --- | --- |
| COc1ccc(/C=C2\CCCC3=C2N=C2SC=NN2C3c2ccc(OC)c(OC)c2)cc1OC (centres undefined) | NCI-H226 lung | 89.2 |
| C[C@H]1[C@H](C)CC[C@]2(C(=O)O)CC[C@]3(C)C(=CC[C@@H]4[C@@]5(C)CC[C@H](OC(=O)/C=C\c6ccc(O)cc6)C(C)(C)[C@@H]5CC[C@]43C)[C@H]12 | NCI-H226 lung | 26.3 |
| N=C(N)c1ccc(-c2ccc(-c3ccco3)o2)cc1F | NCI-H226 lung | 13.6 |

Respond only with TGI recorded for O=C(Nc1cccc2ccccc12)c1cc2ccccc2cc1O
9.42

====

Tested on: SW-620 colon
Assay: NCI tumour cell line growth inhibition, 48 h; in the data active means GI50 below about 0.43 µM; inactive means the rest
Give one outcome, nothing more. List: active, inactive

Completed entries (count: 5):
| compound | label-value |
| --- | --- |
| OCCCNC(=S)Nc1ccc(-c2nc3ccccc3s2)cc1 | inactive |
| CC(=O)O[C@@H]1CC(=O)O[C@@H]2C[C@@H](CC/C(Cl)=C/C/C=C\1C)O[C@@H]2CO | inactive |
| COc1cccc(-c2cc(NCc3ccc4c(c3)OCO4)nc(N)n2)c1 | active |
| Clc1cccc(Cc2cn3cc(-c4ccccc4)nc3s2)c1 | inactive |
| CN(C)CCOc1cccc(NC2=C(Cl)C(=O)C(Nc3cccc(OCCN(C)C)c3)=C(Cl)C2=O)c1 | active |

Continue with the next compound.
Please state the recorded outcome for this compound: CCOC(=O)C1=C(N)Oc2cc(OC)ccc2C1c1ccc(F)c(F)c1 (stereo unspecified)
inactive

====

Tested on: MDA-MB-435
Assay: NCI tumour cell line growth inhibition, 48 h
Please provide measured TGI for the entries that follow.
One number for each entry, in µM.

| molecule | target-entity | unit-of-measure | data-value |
| --- | --- | --- | --- |
| O=C(NC1CCN(Cc2ccccc2)CC1)c1ccccc1I | MDA-MB-435 | µM | 32.4 |

Quick one: give me TGI for each item below, same order please.
1. Cn1cc(-c2nc(-c3cn(C)c4ncccc34)cs2)c2cc(F)ccc21
2. CC1=C(C(=O)Nc2ccc(Cl)c(Cl)c2)C(c2cccc(O)c2)NC(=S)N1 (stereo not given)
3. C(#Cc1ccccc1C#Cc1ccccn1)c1ccc(OCCCCCCOc2ccc(C#Cc3ccccc3C#Cc3ccccn3)cc2)cc1

1. 0.713
2. 18.5
3. 9.71

====

Test system: CCRF-CEM leukemia
Experiment: NCI tumour cell line growth inhibition, 48 h
Please provide measured TGI for the entries that follow.

| compound | test-readout | data-value |
| --- | --- | --- |
| Cc1c(C)c2ccc(O)cc2[nH]c1=O | TGI | > 100 µM |
| Cc1ccc(S(=O)(=O)NC(=O)Nc2nc(Cl)cc(Cl)n2)cc1 | TGI | > 100 µM |
| COc1ccc(OC)c2c3c(ncc12)-c1cc2c(cc1C3)OCO2 | TGI | > 100 µM |

Quick one: give me TGI for each item below, same order please.
1. COC(=O)CCC(=O)C(C#N)c1ccc(Cl)cc1Cl (configuration not stated)
2. O=C(O)c1cn(C2CC2)c2cc(N3CCN(C(=O)Nc4nc(-c5ccc(Cl)cc5)cs4)CC3)c(F)cc2c1=O
3. O=CNc1ccc2c(c1)Cc1cc([N+](=O)[O-])ccc1-2
4. COc1cc(C2c3cc4c(cc3OC(O)C2C)OCO4)cc(OC)c1O (configuration not stated)
5. CCN1CCN(Cc2ccc3cc(C(=O)Nc4cc(NC(=O)c5ccc6c(c5)OCCO6)ccc4F)ccc3n2)CC1

> 100 µM
> 100 µM
> 100 µM
> 100 µM
2.54 µM

Quick one: give me TGI for each item below, same order please.
1. O=C(Cc1nc2ccccc2s1)NC12CC3CC(CC(C3)C1)C2
2. Cc1cccc(C(O)c2ccccn2)c1O (configuration not stated)
3. N#CC(C#N)=Cc1ccc(-c2ccc(-c3nc4ccccc4s3)cc2)s1

> 100 µM
> 100 µM
62.9 µM

Quick one: give me TGI for each item below, same order please.
1. C(#Cc1ccccc1C#Cc1ccccn1)c1ccc(OCCCCCCOc2ccc(C#Cc3ccccc3C#Cc3ccccn3)cc2)cc1
2. COC(C(=O)[C@@H](O)[C@@H](C)O)[C@@H]1Cc2cc3cc(O[C@H]4C[C@@H](O[C@H]5C[C@@H](O)[C@H](O)C(C)O5)[C@H](O)C(C)O4)c(C)c(O)c3c(O)c2C(=O)[C@H]1O[C@H]1C[C@@H](O[C@H]2C[C@@H](O[C@H]3C[C@@H](O)[C@@H](O)C(C)O3)[C@@H](O)C(C)O2)[C@H](O)C(C)O1 (some centres not stated)
3. CCC(/C=C/c1ccccc1)=N\N=C(\C=C\c1ccccc1)CC
4. O=C1C=CC(=O)N1CCCCCCCCCCN1C(=O)C=CC1=O
5. C/C(=C\[C@H]1C[C@@H]([C@@H]2CC[C@]34C[C@]23C=C[C@@H]2[C@@]3(C)CC=C5C[C@@H](c6ccccc6)OC[C@]5(C)[C@@H]3C[C@@H](O)[C@]24C)C(=O)O1)CO
6. CC1(C)CC[C@]2(C(=O)O)CC[C@]3(C)C(=CC[C@@H]4[C@@]5(C)CC[C@@H]6OC(C)(C)OC[C@@]6(C)[C@@H]5CC[C@]43C)[C@H]2C1

0.151 µM
> 32.5 µM
> 100 µM
> 100 µM
> 100 µM
37.1 µM

Quick one: give me TGI for each item below, same order please.
1. O=C(Nc1cccc2ccccc12)c1cc2ccccc2cc1O
2. O=C(O)C#Cc1ccc([N+](=O)[O-])cc1

1: 12.1 µM; 2: > 100 µM

Quick one: give me TGI for each item below, same order please.
1. N=C1N=Nc2nc(C3(c4nc5n(c4O)C(=N)N=N5)Cc4ccccc4C3=O)c(O)n21 (configuration not stated)
2. Cc1cc(Cl)ccc1Nc1nc(C(F)(F)F)ccc1C(=O)N/N=C/c1c(Cl)cccc1Cl
3. CC1(CC(=O)OC(C#C[Si](C)(C)C)Cc2ccccc2)OCCO1 (configuration not stated)

> 100 µM
> 100 µM
> 100 µM
